Data origin, for the record: ChEMBL document CHEMBL1136753

# TARGET: Tyrosine-protein kinase Lck (Homo sapiens)
# Sequence (P06239 whole entry): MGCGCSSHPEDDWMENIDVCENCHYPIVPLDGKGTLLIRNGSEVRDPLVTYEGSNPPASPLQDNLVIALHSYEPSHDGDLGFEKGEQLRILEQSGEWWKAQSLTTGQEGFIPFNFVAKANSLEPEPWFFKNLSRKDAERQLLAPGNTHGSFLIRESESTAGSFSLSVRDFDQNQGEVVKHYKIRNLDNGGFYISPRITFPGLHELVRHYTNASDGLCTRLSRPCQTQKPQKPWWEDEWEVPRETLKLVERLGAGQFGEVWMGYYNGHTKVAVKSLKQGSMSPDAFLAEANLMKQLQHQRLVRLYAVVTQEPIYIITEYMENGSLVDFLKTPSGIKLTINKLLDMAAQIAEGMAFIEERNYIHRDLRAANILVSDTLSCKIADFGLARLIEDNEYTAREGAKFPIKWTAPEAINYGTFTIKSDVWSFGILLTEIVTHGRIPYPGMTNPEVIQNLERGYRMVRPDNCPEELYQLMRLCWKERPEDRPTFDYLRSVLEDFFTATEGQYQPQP
pIC50: −log10 of the molar value.
Where pIC50 equals or exceeds 7, the correct label is 1; where it does not, the label is -1.

Answered examples (8):
- SMILES_STR: "Cc1c(C=O)nc(O)c2c1ccc1nc(Nc3c(Cl)cccc3Cl)n(C)c12"
  GROUP_LABEL: -1
- SMILES_STR: "CCOC(=O)Cc1c(C)nc(O)c2c1ccc1nc(Nc3c(Cl)cccc3Cl)n(C)c12"
  GROUP_LABEL: -1
- SMILES_STR: "COc1ccc(CNCc2cc3c(C)c(C)nc(O)c3c3c2nc(Nc2c(Cl)cccc2Cl)n3C)cc1"
  GROUP_LABEL: -1
- SMILES_STR: "C=Cc1nc(O)c2c(ccc3nc(Nc4c(Cl)cccc4Cl)n(C)c32)c1C"
  GROUP_LABEL: 1
- SMILES_STR: "Cc1c(/C=C/CN2CCOCC2)nc(O)c2c1ccc1nc(Nc3c(Cl)cccc3Cl)n(C)c12"
  GROUP_LABEL: 1
- SMILES_STR: "Cc1nc(O)c2c(cc(-c3ccc(F)nc3F)c3nc(Nc4c(Cl)cccc4Cl)n(C)c32)c1C"
  GROUP_LABEL: 1
- SMILES_STR: "Cc1nc(O)c2c(ccc3c2nc(Nc2c(Cl)cccc2Cl)n3C)c1C"
  GROUP_LABEL: -1
- SMILES_STR: "Cc1c(/C=C/CN)nc(O)c2c1ccc1nc(Nc3c(Cl)cccc3Cl)n(C)c12"
  GROUP_LABEL: 1

Ask: Could you tell me if the measured pIC50 of Cc1nc(O)c2c(ccc3nc(Nc4c(Cl)cccc4Cl)n(C)c32)c1CC(=O)N1CCN(C)CC1 reaches 7 or more?
Result: -1
